Listing of entries alongside the reported melting point.

Some solved entries appear below for comparison.
Compound: Cc1ccc(-c2c3n(c(=O)c4ncccc24)CCN(Cc2cc(C(F)(F)F)cc(C(F)(F)F)c2)C3=O)cc1 [Example 1]
melting point: 270 to 271 °C
--
Compound: O=C1c2c(-c3ccccc3)ccnc2OCCN1Cc1ccc(Cl)c(Cl)c1 [Example 65]
melting point: 189 to 192 °C
--
Compound: O=C1c2c(-c3ccccc3)cc(CNC3CC3)nc2OCCN1Cc1cc(C(F)(F)F)cc(C(F)(F)F)c1 [Example 46]
melting point: 129 to 131 °C
--
Compound: Cc1ccc(-c2c3n(c(=O)c4ncccc24)CC(O)CN(Cc2cc(C(F)(F)F)cc(C(F)(F)F)c2)C3=O)cc1 (racemic) [Example 25]
melting point: 282 to 283 °C
--
Compound: Cc1cnc2c(c1-c1ccccc1)C(=O)N(Cc1cc(C(F)(F)F)cc(C(F)(F)F)c1)CCN(C)C2=O [Example 50]
melting point: 203 to 205 °C
--
Compound: Cc1ccc(-c2c3n(c(=O)c4ncccc24)CCC(C)CN(Cc2cc(C(F)(F)F)cc(C(F)(F)F)c2)C3=O)cc1 (racemic) [Example 16]
melting point: 280 to 281 °C

Could you now consider this next compound?
# input compound: C[C@@H]1CCn2c(c(-c3ccccc3)c3cccnc3c2=O)C(=O)N(Cc2cc(C(F)(F)F)cc(C(F)(F)F)c2)C1 [Example 17] ; wanted: its melting point
245 to 247 °C

Source: patent US6489315B1
